Below, each entry is listed alongside its reported pIC50.
assay-target: PAR4 (Homo sapiens (Human))
assay-explanation: PAR4 FLIPR assay (antagonism of agonist-peptide-induced calcium mobilization)
Assay type: cell-based
assay-context: H-Ala-Phe(4-F)-Pro-Gly-Trp-Leu-Val-Lys-Asn-Gly-NH2-induced intracellular calcium mobilization, PAR4-expressing HEK293 cells; read-out: PAR4 FLTPR assay (IC50)
pIC50 (log units): -log10 of the concentration in mol/L.

Consider the reported pIC50 for these compounds:
INSERT INTO measurements (compound_smiles, assay_target, test_readout, result_number) VALUES
  ('COc1ccc(NC(=O)O[C@@H]2CC[C@@H]2Oc2cc3sc(-c4cc(C)cc5nc(OC)cnc45)nc3cc2F)cn1', 'PAR4 (Homo sapiens (Human))', 'pIC50', 9.30),
  ('COc1cnc2c(-c3nc4cc(F)c(O[C@H]5CC(F)(F)CC[C@H]5OC(=O)Nc5cnc(OCCOP(=O)(O)O)nc5)cc4s3)cc(C)cc2n1', 'PAR4 (Homo sapiens (Human))', 'pIC50', 9.00),
  ('COc1cnc2c(-c3nc4cc(F)c(O[C@H]5CC[C@H]5OC(=O)Nc5cnc(CCO)nc5)cc4s3)cc(C)cc2n1', 'PAR4 (Homo sapiens (Human))', 'pIC50', 8.43);

Req: # query: pIC50 | item COc1cnc2c(-c3nc4cc(F)c(O[C@@H]5CC[C@@H]5OC(=O)Nc5cnc(OCCO)nc5)cc4s3)cc(Cl)cc2c1 | system: PAR4 (Homo sapiens (Human))
Resp: 8.00

Req: # query: pIC50 | item COc1cnc2c(-c3nc4cc(F)c(O[C@H]5CCC[C@H]5OC(=O)Nc5ncc(C)cn5)cc4s3)cc(C)cc2n1 | system: PAR4 (Homo sapiens (Human))
Resp: 7.08

Req: # query: pIC50 | item COc1cnc2c(-c3nc4cc(F)c(O[C@H]5CC(F)(F)C[C@H]5OC(=O)Nc5cnc(C)nc5)cc4s3)cc(C)cc2n1 | system: PAR4 (Homo sapiens (Human))
Resp: 8.89

---

assay-target: PAR4 (Homo sapiens (Human))
assay-explanation: PAR4 FLIPR assay (antagonism of agonist-peptide-induced calcium mobilization)
Format: cell-based
assay-context: H-Ala-Phe(4-F)-[…]NH2-induced intracellular calcium mobilization, PAR4-expressing HEK293 cells; read-out: PAR4 FLTPR assay (IC50)
Excerpt: The Fluorometric Imaging Plate Reader (FLIPR) assay is an exemplary in vitro assay for measuring the activity of the PAR4 antagonists of the present invention. In this assay, intracellular calcium mobilization is induced in PAR4 expressing cells by a PAR4 agonist and calcium mobilization is monitored. HEK293 cells stably expressing PAR4 were generated by a standard method of transfection of human PAR4 (F2R23) cDNA expression vector and selected based on PAR4 protein expression or mRNA expression. […]
Under this convention, Fulfilled denotes IC50 strictly below 4 nM and Not fulfilled denotes IC50 at or above 4 nM.

Solved cases below.
INSERT INTO assay_data (compound, assay_target, answer_label) VALUES
  ('COc1cnc2c(-c3nc4cc(F)c(O[C@@H]5CCCC[C@@H]5OC(=O)Nc5ccncc5)cc4s3)cc(C)cc2n1 (racemic)', 'PAR4 (Homo sapiens (Human))', 'Fulfilled'),
  ('COc1ccc(NC(=O)O[C@H]2CCOC[C@H]2Oc2cc3sc(-c4cc(C#N)cc5nc(OC)cnc45)nc3cc2F)cn1 (racemic)', 'PAR4 (Homo sapiens (Human))', 'Fulfilled');

Req: Consider the compound COc1cnc2c(-c3nc4cc(F)c(OC5CCC[C@@H]5O)cc4s3)cc(C)cc2n1 (mixture of isomers) . Is its IC50 strictly less than 4 nM?
Resp: Not fulfilled

Req: Consider the compound COc1ccc(NC(=O)O[C@H]2CCC(F)(F)CC2Oc2cc3sc(-c4cc(C)cc5nc(OC)cnc45)nc3cc2F)cn1 (mixture of isomers) . Is its IC50 strictly less than 4 nM?
Resp: Fulfilled

Req: Consider the compound COc1cnc2c(-c3nc4cc(F)c(O[C@H]5CCC[C@H]5OC(=O)Nc5cccnc5)cc4s3)cc(C)cc2n1 (racemic) . Is its IC50 strictly less than 4 nM?
Resp: Not fulfilled

Req: Consider the compound COc1cnc2c(-c3nc4cc(F)c(O[C@@H]5CCC(C)(C)[C@@H]5OC(=O)Nc5cnc(C)nc5)cc4s3)cc(C)cc2n1 (racemic) . Is its IC50 strictly less than 4 nM?
Resp: Fulfilled

---

assay-target: UniProt Q96RI0
assay-explanation: PAR4 FLIPR assay (antagonism of agonist-peptide-induced calcium mobilization)
Assay type: cell-based
assay-context: H-Ala-Phe(4-F)-[…]NH2-induced intracellular calcium mobilization, PAR4-expressing HEK293 cells; read-out: PAR4 FLTPR assay (IC50)
test-readout: pIC50
pIC50 (log units): -log10 of the concentration in mol/L.

Consider the reported pIC50 for these molecules:
INSERT INTO assay_data (molecule, result_number) VALUES
  ('COc1cnc2c(-c3nc4cc(F)c(O[C@@H]5CC[C@@H]5OC(=O)Nc5cnc(OCCO)nc5)cc4s3)cc(C)cc2n1 (racemic)', 8.80),
  ('COc1cnc2c(-c3nc4cc(F)c(O[C@H]5CCC[C@H]5OC(=O)Nc5cnc(C)nc5)cc4s3)cc(C)cc2n1 (racemic)', 8.60),
  ('COc1cnc2c(-c3nc4cc(F)c(O[C@@H]5CC(F)(F)C[C@@H]5OC(=O)Nc5cnc(C)nc5)cc4s3)cc(Cl)cc2c1 (racemic)', 7.85);

Req: # query: pIC50 | item COc1cnc2c(-c3nc4cc(F)c(O[C@@H]5CN(C(C)=O)CC[C@@H]5OC(=O)Nc5cnc(C)nc5)cc4s3)cc(C)cc2n1 (racemic) | system: UniProt Q96RI0
Resp: 5.64

Req: # query: pIC50 | item COc1cnc2c(-c3nc4cc(F)c(O[C@@H]5CN(C(=O)C(F)(F)F)CC[C@@H]5OC(=O)Nc5cnc(C)nc5)cc4s3)cc(C)cc2n1 (racemic) | system: UniProt Q96RI0
Resp: 7.36

---

Below, each entry is listed alongside its reported IC50.
assay-target: UniProt:Q96RI0
assay-explanation: PAR4 FLIPR assay (antagonism of agonist-peptide-induced calcium mobilization)
Format: cell-based
assay-context: H-Ala-Phe(4-F)-[…]NH2-induced intracellular calcium mobilization, PAR4-expressing HEK293 cells; read-out: PAR4 FLTPR assay (IC50)
Value expressed in nM; do not type the unit.

Consider the reported IC50 for these compounds:
INSERT INTO assay_data (compound, value_unit, result_number) VALUES
  ('COc1cnc2c(-c3nc4cc(F)c(O[C@@H]5CCCC[C@H]5OC(=O)Nc5cnc(C)nc5)cc4s3)cc(C)cc2n1 (racemic)', 'nM', 13),
  ('COc1ccc(NC(=O)O[C@H]2CC[C@H]2Oc2cc3sc(-c4cc(C)cc5nc(OC)cnc45)nc3cc2F)cn1 (racemic)', 'nM', 0.79),
  ('COc1cnc2c(-c3nc4cc(F)c(O[C@@H]5CCCC[C@@H]5OC(=O)Nc5cccnc5)cc4s3)cc(C)cc2n1 (single isomer, unassigned; enantiomer 2) [Example 59]', 'nM', 77);

// moving on: another record for IC50
Req: Recorded IC50 of COc1cnc2c(-c3nc4cc(F)c(O[C@H]5CCCC[C@H]5OC(=O)Nc5cccnc5)cc4s3)cc(C)cc2n1 (single isomer, unassigned; enantiomer 1) , please.
Resp: 1.4

---

assay-target: PAR4 (Homo sapiens (Human), UniProt Q96RI0)
Sequence (Q96RI0 18-385): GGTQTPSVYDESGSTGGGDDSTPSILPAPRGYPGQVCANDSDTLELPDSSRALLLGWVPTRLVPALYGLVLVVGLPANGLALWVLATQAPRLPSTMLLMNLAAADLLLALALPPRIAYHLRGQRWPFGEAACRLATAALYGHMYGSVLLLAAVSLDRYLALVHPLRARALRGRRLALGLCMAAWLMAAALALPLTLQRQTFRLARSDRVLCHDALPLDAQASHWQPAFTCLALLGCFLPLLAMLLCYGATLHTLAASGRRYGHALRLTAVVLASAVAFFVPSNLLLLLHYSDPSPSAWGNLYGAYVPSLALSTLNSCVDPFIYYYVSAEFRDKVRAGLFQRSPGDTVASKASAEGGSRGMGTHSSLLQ
assay-explanation: PAR4 FLIPR assay (antagonism of agonist-peptide-induced calcium mobilization)
Format: cell-based
assay-context: H-Ala-Phe(4-F)-Pro-Gly-Trp-Leu-Val-Lys-Asn-Gly-NH2-induced intracellular calcium mobilization, PAR4-expressing HEK293 cells; read-out: PAR4 FLTPR assay (IC50)
Below, each entry is listed alongside its reported IC50.

Consider the reported IC50 for these compounds:
INSERT INTO results (compound_smiles, test_readout, result) VALUES
  ('COc1cnc2c(-c3nc4cc(F)c(O[C@H]5CC(F)(F)CC[C@H]5OC(=O)Nc5cnc(OCCO)nc5)cc4s3)cc(Cl)cc2c1', 'IC50', '1.3 nM'),
  ('CCOc1cnc2c(-c3nc4cc(F)c(O[C@@H]5CC[C@@H]5OC(=O)Nc5cnc(OCCO)nc5)cc4s3)cc(C)cc2n1', 'IC50', '5.9 nM');

Req: # query: IC50 | item COc1cnc2c(-c3nc4cc(F)c(O[C@H]5CCC[C@H]5OC(=O)Nc5ccc(C)nc5)cc4s3)cc(C)cc2n1 | system: PAR4 (Homo sapiens (Human), UniProt Q96RI0)
Resp: 2.6 nM

Req: # query: IC50 | item COc1cnc2c(-c3nc4cc(F)c(O[C@@H]5CC[C@@H]5OC(=O)Nc5cnc(C)nc5)cc4s3)cc(C)cc2n1 | system: PAR4 (Homo sapiens (Human), UniProt Q96RI0)
Resp: 0.99 nM

Req: # query: IC50 | item COc1cnc2c(-c3nc4cc(F)c(O[C@@H]5CC[C@@H]5OC(=O)Nc5cnc(OCCO)nc5)cc4s3)cc(C)cc2n1 | system: PAR4 (Homo sapiens (Human), UniProt Q96RI0)
Resp: 0.75 nM

Req: # query: IC50 | item COc1cnc2c(-c3nc4cc(F)c(O[C@H]5CCC[C@H]5OC(=O)Nc5ccc(CO)nc5)cc4s3)cc(C)cc2n1 | system: PAR4 (Homo sapiens (Human), UniProt Q96RI0)
Resp: 1.1 nM

Req: # query: IC50 | item COc1cnc2c(-c3nc4cc(F)c(O[C@H]5CCC[C@H]5OC(=O)NC(C)C)cc4s3)cc(C)cc2n1 | system: PAR4 (Homo sapiens (Human), UniProt Q96RI0)
Resp: 12 nM
